Test system: VDR homodimer (NR concentration 270 nM)
Assay: PBM binding z-score (relative to random genomic background probes); higher = stronger binding; sequences stand for … in GC…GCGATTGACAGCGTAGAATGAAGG
experimental.endpoint: PBM binding z-score

{"columns": ["sequence.content", "value.reported"],
 "data": [
  ["CGAACTAGGTCATTGACAGAACAGTGAATAGTAA", 1.15],
  ["GCTGCTAGCTCAACTGATGGTCAGCTAAAGCTCG", -1.04],
  ["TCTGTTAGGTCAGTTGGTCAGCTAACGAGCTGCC", 0.469],
  ["TCTATTAGTTGATTAGGACAACCGAAACAGCGGA", 1.03],
  ["CGTCCAAGGTCAGCAGGGCAGTGAAAGCGACGTG", 1.02],
  ["CAAACTAGGTCATCGGAAGGTCAAAGTCCGCATG", 3.67],
  ["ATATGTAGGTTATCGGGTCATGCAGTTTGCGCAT", 3],
  ["CAAACTAGGTCAAGTTCAAAGTCGGTTTGTGCCA", 6.29],
  ["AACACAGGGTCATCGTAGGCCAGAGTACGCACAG", 3.84],
  ["ACTATTAGTTGACTCAGGGCAACCGATACGACGC", 0.644],
  ["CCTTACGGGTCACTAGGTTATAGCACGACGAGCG", 1.24],
  ["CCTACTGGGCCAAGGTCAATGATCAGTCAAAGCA", 1.61]
]}

====

System: PPARa:RXRa (NR concentration 270 nM, RXRa partner concentration 90 nM)
Experiment: PBM binding z-score (relative to random genomic background probes); higher = stronger binding; sequences stand for … in GC…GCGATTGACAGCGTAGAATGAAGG
PBM binding z-score: recorded values

{"columns": ["sequence.content", "PBM binding z-score"],
 "data": [
  ["CCTAGCAGGCCGGGGTCACTCAAGCATTTCGCTT", 4.93],
  ["CCAGACAGTTGAAAGGTAACTCAGTCTGGTACGC", 1.47],
  ["TGAATGAGGTTATAAAATCAGGGAACGTTGCAAA", 2.15],
  ["GTACCAAGGTGTATAGGTCGTTGATGAGTAGGCG", 0.871],
  ["CCTAGTTGGTTAAGGTCACACACGCTATAGGTAC", 4.33],
  ["CGTCAAAGTTCAACTAAGGCAACGTAAAGCACGC", 4.93],
  ["AATACAGGGTCACTCGGCCAGAGTAGGTACGAAT", 5.6],
  ["GCAGACAGGTGAAACCCAGGTAACTCAGGGTGGC", 0.818],
  ["AGTCAAAGTTCATCTAGGTAACGTAAGATATGCT", 4.84],
  ["CCGACTGGAGCAAAGGTTACCATACTCAGTACGA", 4.5],
  ["ATCGAAAGGTCGTGGTGAGTATAGAGAAAGGGAA", 5.5],
  ["TCTTGTAGATCAGCCGGTTAAGAAAGCTGGCCAA", 0.168]
]}

====

Test system: VDR homodimer (NR concentration 270 nM)
Experiment: PBM binding z-score (relative to random genomic background probes); higher = stronger binding; sequences stand for … in GC…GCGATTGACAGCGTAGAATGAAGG
experimental.endpoint: PBM binding z-score

{"columns": ["sequence.content", "experimental.system", "value.reported"],
 "data": [
  ["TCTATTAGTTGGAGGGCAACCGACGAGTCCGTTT", "VDR homodimer (NR concentration 270 nM)", 1.86],
  ["CAGCCTAGGTCACGGCCAGTATAGGAGGAACGTT", "VDR homodimer (NR concentration 270 nM)", 0.435],
  ["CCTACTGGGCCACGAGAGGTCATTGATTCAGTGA", "VDR homodimer (NR concentration 270 nM)", 3.47],
  ["CAAACTAGGTCACGAAAGGTCGAAGTCGAATGAC", "VDR homodimer (NR concentration 270 nM)", 2.3],
  ["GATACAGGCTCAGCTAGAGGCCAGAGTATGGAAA", "VDR homodimer (NR concentration 270 nM)", -0.924],
  ["ATCGAAAGGTCGTGAGGCGAGTATACAGAAAGGC", "VDR homodimer (NR concentration 270 nM)", 0.582]
]}

====

Tested on: PPARg:RXRa 90nM:30nM, anti-RXR (NR concentration 90 nM, RXRa partner concentration 30 nM)
Assay: PBM binding z-score (relative to random genomic background probes); higher = stronger binding; sequences stand for … in GC…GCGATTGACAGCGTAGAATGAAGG
Grouping by measured PBM binding z-score is done with the following cut points: low class (below 1), middle class (1 to below 5), high class (5 or more)

{"columns": ["sequence.content", "assigned.category"],
 "data": [
  ["ACTAGTTGGTCAGCGGAGGTCACACACAATTCGG", "middle class"],
  ["CCGAGTAGGTTCTGGGGCATTCAGGCAACGGTGA", "low class"],
  ["TCATATAGGAAAACAGGTGAAAGTCCGTAAGTTA", "middle class"],
  ["CAAACTAGGTCAAGAGGTCAAAATCCGCTTCCCG", "high class"],
  ["CCTAGCAGGCCAGGGTTACTCAAGCATTTCGCTT", "low class"],
  ["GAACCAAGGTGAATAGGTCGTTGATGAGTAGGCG", "middle class"],
  ["TAGCCTATGTCATGGGCCAGTATACCACGCGAAC", "low class"],
  ["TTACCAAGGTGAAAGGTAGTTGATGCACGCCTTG", "middle class"],
  ["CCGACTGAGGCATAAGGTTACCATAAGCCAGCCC", "low class"],
  ["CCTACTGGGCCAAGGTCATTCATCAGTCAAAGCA", "middle class"],
  ["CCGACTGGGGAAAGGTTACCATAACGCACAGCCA", "middle class"],
  ["GGCACGAGGGCAAAGTTGATAGCATCTGTCGACG", "high class"],
  ["TCTATTACTTGATTAGGGCAACCGAAACAGCGGA", "middle class"],
  ["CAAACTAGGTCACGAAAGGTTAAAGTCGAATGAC", "high class"],
  ["AGTCAAAGATCATCTAGGTAACGTAAGATATGCT", "middle class"],
  ["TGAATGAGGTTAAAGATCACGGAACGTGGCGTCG", "high class"],
  ["TCATATAGGTAAAGGTGAAGGTCGAACGATATGA", "middle class"],
  ["CCATACGGGTCAAGGTTATAGCACGGGTGGTACG", "middle class"],
  ["CTGCCTAGGTCAGGGCCAGTATAGGAGGAACGTT", "low class"],
  ["TCTCGGAGGACACGACGGTCAGAGCTTTCCAGAG", "middle class"],
  ["ATCTCTAGGTAAAGATAGTTCAATGAATGCAAAT", "low class"],
  ["GATGCAGGGTCAAGGCCAGAGTACGCGTATTGAT", "middle class"],
  ["CGAACTAGGTCATCCAGGACTGTGAATACATTGA", "high class"],
  ["CGTCAAAGTTCTACTAAGGTAACGTAAAGCACGC", "low class"]
]}

====

System: THRa:RXRa (NR concentration 90 nM, RXRa partner concentration 90 nM)
Test: PBM binding z-score (relative to random genomic background probes); higher = stronger binding; sequences stand for … in GC…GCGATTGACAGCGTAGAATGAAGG
Response field class: enum, chosen by comparing PBM binding z-score against band 1: < 2; band 2: ≥ 2 and < 3; band 3: ≥ 3

{"columns": ["sequence.content", "assigned.category"],
 "data": [
  ["TTACCAAGGTGAATGGTCGTTGATGCACGCCTTG", "band 1"],
  ["CTACCAAGGTGAACAAGGTCGTTGAATACTATTC", "band 3"],
  ["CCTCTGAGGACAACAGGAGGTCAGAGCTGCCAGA", "band 3"],
  ["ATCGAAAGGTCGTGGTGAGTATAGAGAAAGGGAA", "band 2"],
  ["CCTATTAGTTGACAATAAGGGCAACCGAAGCTCG", "band 1"],
  ["GCTAGTTGGTCAGTAACAGGTCACACACCGGTCG", "band 2"],
  ["GCTGCTAGGTCAGGTGGGTCAGCTAACGGGTACG", "band 2"],
  ["GCGACTGGGGCATCAGCAGGTTATCATAACTTAA", "band 1"],
  ["TCTTGTAGATCAAAGGTTAAGGAAGCCGAAGCCT", "band 1"],
  ["TATGCTAGGTCAACGATGGTCAGCTAATCTGCTA", "band 3"],
  ["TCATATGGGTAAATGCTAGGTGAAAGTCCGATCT", "band 1"],
  ["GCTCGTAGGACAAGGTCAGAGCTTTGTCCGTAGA", "band 2"],
  ["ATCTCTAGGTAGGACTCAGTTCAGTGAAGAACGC", "band 1"],
  ["AGTCAAAGTTCAGGACGTGGTAACGTAAAGCACG", "band 2"],
  ["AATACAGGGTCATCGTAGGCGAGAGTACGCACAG", "band 3"],
  ["ATCGAAAGGTCGACGAGGTAAGTATACACCGTTT", "band 3"],
  ["ATATGTAGGTCACATCCGGGTCATTCAGGCTATG", "band 3"],
  ["GCTTACGGGTCAAAGGTTATAGCCTGAATAGAAT", "band 3"],
  ["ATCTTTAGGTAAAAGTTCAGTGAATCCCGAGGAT", "band 1"],
  ["CCGACTTGGGCATAAGGTTACCATAAGCCAGCCC", "band 1"],
  ["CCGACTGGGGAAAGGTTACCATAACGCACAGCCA", "band 1"],
  ["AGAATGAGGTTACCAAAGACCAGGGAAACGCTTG", "band 2"],
  ["AGAATGAGGTTAAGATCAGGCAAACAGAATACAT", "band 2"],
  ["GGAACGAGGGCAAAGTTGATAGCCTCTGTCGACG", "band 1"],
  ["GGAACGAGGGCATTCCAGTTGATAGCATGGCGAT", "band 3"]
]}
